Where these numbers come from: patent EP3057951B1

# Experimental target: wild type human RORγt ligand binding domain (RORyt LBD) (Homo sapiens, UniProt P51449)
# Construct: His-tag (N); TurboTEV protease cleavage site (ENLYFQG) (N)
# Sequence (P51449 258-518): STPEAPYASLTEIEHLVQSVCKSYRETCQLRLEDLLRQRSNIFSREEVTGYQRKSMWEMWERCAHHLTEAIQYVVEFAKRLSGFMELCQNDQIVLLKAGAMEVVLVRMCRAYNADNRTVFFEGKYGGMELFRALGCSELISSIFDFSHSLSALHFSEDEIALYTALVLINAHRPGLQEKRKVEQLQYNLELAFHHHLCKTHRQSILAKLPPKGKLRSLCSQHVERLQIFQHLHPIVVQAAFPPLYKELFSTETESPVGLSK
# Experiment description: RORγt ThermoFluor assay (thermal shift, binding affinity KD)
pKd: −log10 of the molar value.
Rule: pKd under 7 gives Not fulfilled, otherwise Fulfilled.

Ask: Assess whether reported pKd for Cc1cc(C(O)(c2ccnc(C(F)(F)F)c2)c2cncn2C)cc2c(C#N)c(Cc3ccc(-n4cccn4)cc3)c(C#N)nc12 (single isomer, unassigned) [Example 83b] sits at 7 or higher.
Result: Fulfilled

Ask: Assess whether reported pKd for COc1nc2ccc(C(O)(c3ccc(C)nc3C)c3cnc(C)n3C)cc2c(Cl)c1Cc1ccc(C(F)(F)F)nc1 (single isomer, unassigned) [Example 42b] sits at 7 or higher.
Result: Not fulfilled

Ask: Assess whether reported pKd for Cn1cncc1C(O)(c1ccc(Cl)cc1)c1ccc2nc(N3CCC3)c(Cc3ccc(-n4cccn4)cc3)c(Cl)c2c1 (single isomer, unassigned) [Example 138c] sits at 7 or higher.
Result: Fulfilled

Ask: Assess whether reported pKd for COc1nc2ccc(C(O)(c3sc(C)nc3C)c3cnnn3C)cc2cc1Cc1ccc(C(F)(F)F)cc1 (single isomer, unassigned) [Example 92c] sits at 7 or higher.
Result: Fulfilled

Ask: Assess whether reported pKd for COc1nc2ccc(C(O)(c3ccccc3)C3CCN(C(C)=O)CC3)cc2c(Cl)c1Cc1ccc(-n2ccnc2)cc1 (stereo not drawn) [Example 16a] sits at 7 or higher.
Result: Fulfilled
